Reference source for all entries: paper PMC11435065

Assay: Tissue distribution of SGC003F in rats with or without tariquidar
Format: in vivo
Conditions: male, Sprague-Dawley, rat, kidney, oral, SGC003F p.o. 1 mg/kg, with tariquidar i.v. 7.5 mg/kg, read-out: KP2, Kidney
VALUE KIND: Kp
One number for each entry.

**Q:** Consider the compound COC(=O)Nc1c(N)nc(-c2nn(Cc3sccc3F)c3ncc(F)cc23)nc1N [SGC003F] and give its measured Kp.
**A:** 1.05

* * *

Experiment: Tissue distribution of SGC003F in rats with or without tariquidar
Assay type: in vivo
Conditions: male, Sprague-Dawley, rat, small intestine, oral, SGC003F p.o. 1 mg/kg, with tariquidar i.v. 7.5 mg/kg, read-out: KP2, Intestine
VALUE KIND: Kp

**Q:** Consider the compound COC(=O)Nc1c(N)nc(-c2nn(Cc3sccc3F)c3ncc(F)cc23)nc1N [SGC003F] and give its measured Kp.
**A:** 0.74
